Listed here: items and their measured phosphorylation enrichment.
System: c-Abl (mouse)
Test: phosphorylation enrichment, bacterial display (enrichment ratio); higher = better substrate or ligand; peptides without Tyr show the background

RESIDUES | phosphorylation enrichment
NFRTTYVNANE [KCNH2_Y475] | 0.61
SGVNKYSTAFG [GJB3_Y16] | 0.461
GGPAGYLRRAS [PKLR_Y38] | 0.671
YEREQYADRAR [RBM4_Y355] | 0.531
AIFEGYALPHA [ACTC1_Y171_P166A_YF] | 1.2
GQDLLYEDEDL [PACS1_Y303_F302L] | 0.855
VNTTLYEKFTF [TEK_Y1108_YF] | 0.976
WSFNLYDINKD [KCNIP3_Y174_A170S] | 0.68
NTEGGYRCICA [CRELD1_Y328] | 0.947
VVQGLYKSMPK [KBTBD2_Y250] | 0.492
ICRWVYPLTPE [EIF2B5_Y319_R315C] | 0.739
LGNIVYSSLCG [BCOR_Y90_P85L] | 2.48
GFQPDYGQPAG [SYP_Y278_YF] | 0.509
ASMAKYFASGI [ACADSB_Y372_E376G_YF] | 0.574
LSGVIYVILGK [PMP22_Y153_R157G] | 1.87
SWVVPYEPPEV [TP53_Y220_V216W] | 0.851
APQFTYAQGGQ [FLNA_Y1763_YF] | 0.421
GEIQEYGAPLD [ABCC1_Y1508_S1512L] | 0.743
PAKPRYRARQR [KCNJ11_Y26_E23K] | 0.818
LGKGSYAKVKS [TSSK2_Y23] | 1.26
TTSQLYDAMPI [PDPK1_Y9_V12M] | 0.706
DDPRTYQKFGF [OAS1_Y362_R361T_YF] | 0.607
ALPVFYAATIA [SLC20A2_Y187] | 0.831
IYHLSYIHNCE [PDE6B_Y227_L228I] | 4.3
IVRSLYEDVED [VHL_Y185_L188V] | 0.834
SGGLDYGMVGG [TNRC6B_Y1382_M1380L] | 0.523
SRGSSYSSIPK [FLNC_Y2625] | 0.428
GRQGIYTKNER [GPR143_Y231_E233K] | 0.422
GCRSKYVGLWG [KCNQ1_Y184] | 0.511
EVLKNYNQQKD [GOLGA4_Y1551] | 0.717
LEHCQYVTEKV [ALDOB_Y204] | 1.18
AAGGRYYGLVG [HARS1_Y363_D364Y] | 0.671
VERRVYAEDPF [PCCA_Y401_C398R_YF] | 0.648
RTEAQYRFIYM [PTPN11_Y511_Q506R] | 1.44
GVASDYKCVDP [VPS13B_Y1991_I1994V] | 0.791
IHADIYRWFNI [MARS1_Y344] | 6.74
EMFNPYYGLFE [NEDD4L_Y679] | 2.2
LNWIYYKDQTG [RS1_Y166] | 1.13
KKHIPYKEHKS [CSNK1G1_Y205_R206K] | 3.19
QRKRAYVEIEF [MAK16_Y282_YF] | 0.631
KKMKRYHVGKV [HARS2_Y151] | 0.482
HNELFYEEAEH [VANGL1_Y345_YF] | 0.727
RHCSGYVLIAM [EFR3A_Y73_R70C] | 0.575
EWCSPYGLTPR [GRIN3B_Y601_R598C] | 0.734
RRVPVYGGRGA [QDPR_Y16_L14P] | 1.28
PPAPRYHHLAV [LZTR1_Y119_S122L] | 0.664

* * *

Listed here: items and their measured phosphorylation enrichment.
Biological target: FGFR1 (UniProt P11362)
Sequence (P11362 whole entry, looked up): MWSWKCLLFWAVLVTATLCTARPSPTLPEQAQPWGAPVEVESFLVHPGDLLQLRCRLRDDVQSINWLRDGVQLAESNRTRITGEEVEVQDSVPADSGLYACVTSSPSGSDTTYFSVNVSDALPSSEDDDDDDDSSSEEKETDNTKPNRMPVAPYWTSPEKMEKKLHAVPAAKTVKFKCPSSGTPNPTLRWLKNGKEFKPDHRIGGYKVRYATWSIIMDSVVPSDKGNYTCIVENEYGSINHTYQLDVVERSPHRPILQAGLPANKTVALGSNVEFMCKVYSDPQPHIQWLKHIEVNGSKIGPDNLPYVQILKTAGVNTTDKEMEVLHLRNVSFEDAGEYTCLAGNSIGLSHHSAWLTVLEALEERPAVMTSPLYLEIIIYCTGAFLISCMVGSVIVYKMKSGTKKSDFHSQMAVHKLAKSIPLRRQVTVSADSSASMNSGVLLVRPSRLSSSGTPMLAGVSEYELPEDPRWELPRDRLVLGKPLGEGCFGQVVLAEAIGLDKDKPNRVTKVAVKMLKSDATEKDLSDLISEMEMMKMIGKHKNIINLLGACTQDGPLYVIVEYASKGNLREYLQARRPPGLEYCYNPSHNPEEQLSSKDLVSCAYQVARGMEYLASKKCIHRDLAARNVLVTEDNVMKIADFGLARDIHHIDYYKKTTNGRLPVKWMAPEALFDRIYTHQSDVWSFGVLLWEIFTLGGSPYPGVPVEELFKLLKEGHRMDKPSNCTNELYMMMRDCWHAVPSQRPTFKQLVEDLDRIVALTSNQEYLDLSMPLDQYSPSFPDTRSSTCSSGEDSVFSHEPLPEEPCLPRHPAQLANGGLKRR
Assay: phosphorylation enrichment, bacterial display (enrichment ratio); higher = better substrate or ligand; peptides without Tyr show the background

RESIDUES | phosphorylation enrichment
EYKDAYTFAAD [BRDT_Y335_K336T] | 0.511
WGLRSYYETSK [MAGED2_Y448] | 0.508
FFLGAYDRFLP [SLC22A5_Y486_V481F_YF] | 0.503

* * *

Listed here: items and their measured phosphorylation enrichment.
Test system: AncSZ
Experiment: phosphorylation enrichment, bacterial display (enrichment ratio); higher = better substrate or ligand; peptides without Tyr show the background
RECORDED_ENDPOINT: phosphorylation enrichment

RESIDUES | OBSERVED
DNACQYMLTDR [MYH7_Y164_Y162C] | 1.02
NRDNTYNPVSE [FGA_Y127_R129P] | 0.751
STEAIYWRFSK [SH3PXD2B_Y42_R43W_YF] | 1.2

* * *

Target: FGFR3 (UniProt P22607)
Sequence (P22607 whole entry, looked up): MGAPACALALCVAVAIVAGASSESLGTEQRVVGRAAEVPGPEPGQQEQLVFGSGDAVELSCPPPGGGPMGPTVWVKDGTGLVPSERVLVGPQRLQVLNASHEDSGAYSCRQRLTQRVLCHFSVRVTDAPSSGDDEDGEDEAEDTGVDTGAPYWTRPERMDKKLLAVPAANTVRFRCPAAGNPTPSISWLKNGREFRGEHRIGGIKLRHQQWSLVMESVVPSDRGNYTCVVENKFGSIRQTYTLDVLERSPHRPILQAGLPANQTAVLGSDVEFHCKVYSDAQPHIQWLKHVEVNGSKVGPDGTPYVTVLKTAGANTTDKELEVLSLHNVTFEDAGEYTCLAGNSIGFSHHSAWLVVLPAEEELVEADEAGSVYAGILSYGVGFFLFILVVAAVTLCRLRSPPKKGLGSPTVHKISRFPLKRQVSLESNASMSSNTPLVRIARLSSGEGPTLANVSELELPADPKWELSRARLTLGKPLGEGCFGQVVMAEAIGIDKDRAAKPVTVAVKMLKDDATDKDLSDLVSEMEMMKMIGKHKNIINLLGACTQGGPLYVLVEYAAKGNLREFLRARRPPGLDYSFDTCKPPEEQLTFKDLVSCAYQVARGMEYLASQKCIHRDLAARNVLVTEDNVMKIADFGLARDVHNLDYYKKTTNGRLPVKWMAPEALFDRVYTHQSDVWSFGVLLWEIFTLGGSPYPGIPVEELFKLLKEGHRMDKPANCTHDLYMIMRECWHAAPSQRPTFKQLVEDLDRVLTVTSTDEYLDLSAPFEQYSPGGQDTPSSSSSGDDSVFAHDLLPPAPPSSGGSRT
Assay: phosphorylation enrichment, bacterial display (enrichment ratio); higher = better substrate or ligand; peptides without Tyr show the background

RESIDUES | SUBJECT_OF_TEST | phosphorylation enrichment
PRLMLYNPTTF [EGFR_Y270_P266R_YF] | FGFR3 (UniProt P22607) | 1.04
PEFVVYKPQME [CCRL2_Y170] | FGFR3 (UniProt P22607) | 1.08
TARREYMHSPS [CPOX_Y429_W427R] | FGFR3 (UniProt P22607) | 0.355
QDEHGYIFRCF [HSPB1_Y133_S135F] | FGFR3 (UniProt P22607) | 1.31
AVISVYDLVAF [PSEN1_Y256_V261F] | FGFR3 (UniProt P22607) | 0.893
LGKGSYAKVKS [TSSK2_Y23] | FGFR3 (UniProt P22607) | 0.844
GTQCSYLLSRK [UGT3A1_Y123] | FGFR3 (UniProt P22607) | 0.441
HFGCVYFGTLL [MET_Y1093_H1094Y_YF] | FGFR3 (UniProt P22607) | 1.51
EQLQSYQAEII [KRT33A_Y268] | FGFR3 (UniProt P22607) | 0.821

* * *

Target: Hck (UniProt P08631)
Sequence (P08631 whole entry, looked up): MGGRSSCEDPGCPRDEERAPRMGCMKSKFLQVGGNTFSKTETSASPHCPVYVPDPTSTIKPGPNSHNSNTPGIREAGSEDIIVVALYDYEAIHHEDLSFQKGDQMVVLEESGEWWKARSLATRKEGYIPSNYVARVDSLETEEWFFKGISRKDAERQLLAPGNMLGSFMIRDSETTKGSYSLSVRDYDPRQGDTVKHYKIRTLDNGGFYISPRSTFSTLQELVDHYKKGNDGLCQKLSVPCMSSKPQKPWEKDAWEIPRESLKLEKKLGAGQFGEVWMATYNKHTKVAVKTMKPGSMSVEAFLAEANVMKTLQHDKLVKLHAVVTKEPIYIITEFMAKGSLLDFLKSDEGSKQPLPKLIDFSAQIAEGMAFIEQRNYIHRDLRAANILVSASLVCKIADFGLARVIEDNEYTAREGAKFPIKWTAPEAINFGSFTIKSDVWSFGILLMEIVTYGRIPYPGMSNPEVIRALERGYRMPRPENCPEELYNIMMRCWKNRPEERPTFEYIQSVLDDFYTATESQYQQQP
Test: phosphorylation enrichment, bacterial display (enrichment ratio); higher = better substrate or ligand; peptides without Tyr show the background

RESIDUES | phosphorylation enrichment
HSLRDYKEALM [ADA2_Y337_H335R] | 0.679
VSNFNYFFHRE [KCNA1_Y413_YF] | 0.506
QRIYQYIRSRF [DYRK1B_Y273_Q275R] | 1.05
GMTLSYLFREP [NDUFS8_Y74] | 0.509
LVKDGYQMAQP [CSF1R_Y873] | 0.499
SSYSRYIMMPN [LEF1_Y114_G113R] | 0.488
QHVPDYRQNGY [PCDHGA1_Y890_V894G] | 0.524
ILTLKYPIEHG [ACTA1_Y71] | 0.453
NVADHYGVYKP [ATP6V0D2_Y271] | 3.71
ERDYTYDELLN [EIF2S2_Y176_E177D] | 1.04
PFIDSYEKDVA [PGM1_Y521_L516P_YF] | 0.606
NVFGNYNNQSS [HNRNPA1_Y318_D314V] | 0.424
GVASDYKCVDP [VPS13B_Y1991_I1994V] | 0.537
REDIFYTSKLW [AKR1C2_Y81] | 0.77
LLVVVYKYRCY [PSEN1_Y154_L153V] | 1.08
LSQDVYEEDSY [RET_Y900_R897Q] | 0.497
DMLYQYLKQIE [RPAP3_Y569] | 5.42
RRVPVYGGRGA [QDPR_Y16_L14P] | 0.702
FPDFVYKRIKA [DPYSL2_Y479] | 0.443
ESSKAYERALS [TTC37_Y1074] | 0.444
VSVVDYVEPSP [TXNRD2_Y70_A66S] | 0.565
DGTIVCTGLET [USH2A_Y4487_Y4487C] | 0.438
GIMEEYQLPFF [BMPR1A_Y453_V450M_YF] | 0.676
RSHRSYSCQVM [IGLL1_Y192_R189H] | 0.559
RNPLRYTSILT [OR51B6_Y130_S126N] | 0.498
NAPNSYGRRPI [CDKN2A_Y44] | 0.757
FAFQLYDLDPD [CHP2_Y123_R127P_YF] | 1.8
NGEDLYAGSTD [XRCC1_Y515_P514L] | 0.886
PRAGVYPEKDQ [DNM2_Y626_L621P] | 0.662
GFDHSYFFIAT [ESD_Y262_YF] | 0.626
PMQLPHDSTWE [PDGFRB_Y589_Y589H] | 0.78
QKKPRYEIRWK [PDGFRB_Y562] | 0.723

* * *

Molecular target: SHP2-C SH2;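 note: peptide library displayed on the E. coli surface as eCPX fusions, selected cells deep-sequenced, score is each peptide's frequency after selection divided by its frequency in the input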
Test: SH2 binding enrichment of the phosphorylated peptide, bacterial display (enrichment ratio); higher = better substrate or ligand; peptides without Tyr show the background
Listed here: items and their measured SH2 binding enrichment.
RECORDED_ENDPOINT: SH2 binding enrichment

RESIDUES | OBSERVED
ENFSEYQEISV [HEMGN_Y150_A154S] | 0.749
ALAHKHHGGGG [HBB_Y146_Y146H] | 0.673
KVKGEYDMTVP [AHNAK_Y964] | 0.692
FTGDIYSSSNL [LZTR1_Y141_N143S_YF] | 0.567
TGDFGYRTPGF [TNS2_Y668_A670T_YF] | 0.709
IRQDHYESLKE [MTR_Y921] | 0.771
IEKLPYIDKWF [CPS1_Y872_T871P] | 0.679
